Listed molecules paired with reported inhibition
target: Tyrosine-protein kinase Fyn (Homo sapiens) (UniProt P06241); conditions: at 0.1 µM
Sequence (P06241 2-537 limits assumed): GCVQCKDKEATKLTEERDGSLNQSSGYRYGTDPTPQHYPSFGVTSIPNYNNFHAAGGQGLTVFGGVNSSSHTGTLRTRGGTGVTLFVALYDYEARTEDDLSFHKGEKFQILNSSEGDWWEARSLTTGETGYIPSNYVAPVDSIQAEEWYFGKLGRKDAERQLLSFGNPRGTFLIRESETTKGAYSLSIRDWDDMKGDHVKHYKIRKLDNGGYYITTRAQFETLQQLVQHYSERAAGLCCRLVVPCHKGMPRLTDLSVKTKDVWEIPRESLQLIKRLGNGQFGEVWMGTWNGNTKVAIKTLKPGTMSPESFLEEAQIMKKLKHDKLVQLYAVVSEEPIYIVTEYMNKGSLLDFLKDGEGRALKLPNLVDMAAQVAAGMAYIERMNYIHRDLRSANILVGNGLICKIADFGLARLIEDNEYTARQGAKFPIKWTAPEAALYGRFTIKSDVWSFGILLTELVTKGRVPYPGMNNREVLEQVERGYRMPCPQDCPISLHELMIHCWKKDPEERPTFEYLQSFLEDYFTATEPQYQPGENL
Description: GSK_PKIS: FYN mean inhibition at 0.1 uM [Nanosyn]
property.measured: inhibition (%)

| molecule | target.entity | endpoint.value |
| --- | --- | --- |
| O=C1NC(=O)C(c2ccccc2Cl)=C1Nc1cccc(O)c1 | Tyrosine-protein kinase Fyn (Homo sapiens) (UniProt P06241) | 1.1 |
| COc1cc2ncn(-c3cc(OCc4ccccc4Cl)c(C(N)=O)s3)c2cc1OC | Tyrosine-protein kinase Fyn (Homo sapiens) (UniProt P06241) | 2.79 |
| Nc1ncnc2occ(-c3ccc(NC(=O)Nc4cccc(C(F)(F)F)c4)cc3)c12 | Tyrosine-protein kinase Fyn (Homo sapiens) (UniProt P06241) | 3.58 |
| COc1ccc(-c2nn3ncccc3c2-c2ccnc(Nc3ccc(Cl)c(C(F)(F)F)c3)n2)cc1 | Tyrosine-protein kinase Fyn (Homo sapiens) (UniProt P06241) | 3.8 |
| NS(=O)(=O)c1ccc(N/N=C2\C(=O)Nc3ccc(C(=O)NCCc4c[nH]cn4)cc32)cc1 | Tyrosine-protein kinase Fyn (Homo sapiens) (UniProt P06241) | 3.46 |
| CCn1c(-c2nonc2N)nc2cncc(C(=O)N3CC[C@H](N)C3)c21 | Tyrosine-protein kinase Fyn (Homo sapiens) (UniProt P06241) | 3.5 |
| CCN1CCC(CC(=O)Nc2n[nH]c3nc(-c4cccs4)c(Br)cc23)CC1 | Tyrosine-protein kinase Fyn (Homo sapiens) (UniProt P06241) | -0.42 |
| CC1=C(C(=O)Nc2ccc3[nH]ncc3c2)C(c2ccc3ccccc3c2)CC(=O)N1 (centres undefined) | Tyrosine-protein kinase Fyn (Homo sapiens) (UniProt P06241) | 2 |
| COc1ccc(COc2ccc(Cc3cnc(N)nc3N)cc2OC)cc1 | Tyrosine-protein kinase Fyn (Homo sapiens) (UniProt P06241) | 0.22 |
| N#Cc1c(NC(=O)c2cccc3ccccc23)sc2c1CCCC2 | Tyrosine-protein kinase Fyn (Homo sapiens) (UniProt P06241) | 2.07 |
| CC(C)=Cc1cccc2c1/C(=N/Nc1ccc(S(N)(=O)=O)cc1)C(=O)N2 | Tyrosine-protein kinase Fyn (Homo sapiens) (UniProt P06241) | 4.49 |
| CN(C)c1cc2c(Nc3ccc4nc(Cc5ccccc5)[nH]c4c3)ncnc2cn1 | Tyrosine-protein kinase Fyn (Homo sapiens) (UniProt P06241) | 4.62 |
| CCn1c(-c2nonc2N)nc2c(C#CC(C)(C)O)nc(OC[C@@H](N)c3ccccc3)cc21 | Tyrosine-protein kinase Fyn (Homo sapiens) (UniProt P06241) | 2.28 |
| CN1CCC(C(=O)Nc2n[nH]c3nnc(-c4ccccc4)cc23)CC1 | Tyrosine-protein kinase Fyn (Homo sapiens) (UniProt P06241) | 0.66 |
| CCCN1CCC(Oc2cc(Nc3nc(Nc4cccc(F)c4C(N)=O)c4cc[nH]c4n3)c(OC)cc2Cl)CC1 | Tyrosine-protein kinase Fyn (Homo sapiens) (UniProt P06241) | 1.38 |
| CC1=C(C(=O)Nc2ccc3[nH]ncc3c2)C(c2ccc(Cl)c(Cl)c2)CC(=O)N1 (centres undefined) | Tyrosine-protein kinase Fyn (Homo sapiens) (UniProt P06241) | 1.91 |
| CCn1c(-c2nonc2N)nc2cnc(Oc3cccc(NC(=O)c4ccc(OCCN5CCOCC5)cc4)c3)cc21 | Tyrosine-protein kinase Fyn (Homo sapiens) (UniProt P06241) | 1.07 |
| Cc1cccc(-c2n[nH]cc2-c2ccc3ncccc3n2)n1 | Tyrosine-protein kinase Fyn (Homo sapiens) (UniProt P06241) | 0.64 |
| O=C(Nc1n[nH]c2nc(-c3ccco3)c(Br)cc12)C1CC1 | Tyrosine-protein kinase Fyn (Homo sapiens) (UniProt P06241) | 3.33 |
